Values from PubChem BioAssay (NCI)

test system: NCI-H23 lung; assay: NCI-60 one-dose screen, 48 h; settings: 10 µM unless noted
About 83,000 compounds went through this panel and 20% of them were active in at least one assay; those are over-represented in the sample as a whole. The source made the active and inactive calls. How the source made its calls: active means growth percent below 10; inactive means the rest.
// classify into yes = active, no = inactive

Nc1nc(I)c2ncn(C3OC(CO)C(O)C3O)c2n1 (stereo not drawn)
no
C=C1C(=O)O[C@H]2[C@H]1CC/C(Cn1cc(CNCCc3c[nH]c4ccccc34)nn1)=C\CC[C@@]1(C)O[C@@H]21
no
CCN(CC)CCCNC(=O)c1ccc(N)cc1
no
Cc1c(C(=O)O)nnn1-c1nccs1
no
CCn1c(Sc2nnc(NC(=O)CSC(=S)N3CCCCC3)s2)nc2c1c(=O)n(C)c(=O)n2C
no

Data request: Each compound tested received a call. Report the one for `Cn1ncc2c(Nc3ccc(Br)cc3)nc(Nc3ccc(Br)cc3)nc21` .
Data returned: no

Data request: Each compound tested received a call. Report the one for C=C(CNCCc1ccc(O)cc1)[C@@H]1CC[C@]2(COC3CCCCO3)CC[C@]3(C)[C@H](CC[C@@H]4[C@@]5(C)CCC(N)C(C)(C)[C@@H]5CC[C@]43C)[C@@H]12 (stereo partly drawn) .
Data returned: yes

Data request: Each compound tested received a call. Report the one for COc1ccc(-n2sc(=O)n(Cc3ccc(COC(=O)C(C)c4ccc(CC(C)C)cc4)cc3)c2=O)cc1 (stereo not drawn) .
Data returned: no

Data request: Each compound tested received a call. Report the one for CC(C)CCC[C@@H](C)[C@H]1CCC2C3=CCC4C(=O)C=CC(=O)C4C3CC[C@@]21C (stereo partly drawn) .
Data returned: yes

Data request: Each compound tested received a call. Report the one for `NS(=O)(=O)c1cn(-c2ncnc3nc[nH]c23)ccc1=O` .
Data returned: no

Data request: Each compound tested received a call. Report the one for `O=C(Oc1ccc([N+](=O)[O-])cc1)c1ccc(CBr)cc1` .
Data returned: no

Data request: Each compound tested received a call. Report the one for `c1ccc([P+](CCCc2n(Cc3ccc4ccccc4c3)c3ccccc3[n+]2Cc2ccc3ccccc3c2)(c2ccccc2)c2ccccc2)cc1` .
Data returned: no

Data request: Each compound tested received a call. Report the one for `CNC(=O)c1cc(Oc2ccc3nc(Nc4cc(Cl)cc(Cl)c4)ccc3c2)ccn1` .
Data returned: no

---

test system: ACHN renal; assay: NCI-60 one-dose screen, 48 h (100 = growth as untreated, 0 = no growth, -100 = all killed); conditions: 10 µM unless noted
About 83,000 compounds went through this panel and 20% of them were active in at least one assay; those are over-represented in the sample as a whole. The source made the active and inactive calls. The calls were made as follows: active = growth percent below 10; inactive = the rest.
Documented growth across a set of compounds

Past entries and their recorded results:
CCO/C=N/C1=C(C#N)C(c2ccc(OC)cc2)c2c(c3ccccc3n(C)c2=O)O1 (centres undefined)
100% (inactive)
CCCCS(=O)(=O)Oc1ccc(-c2nc(C)c(C(=O)OCC)s2)cc1C=O
62.7% (inactive)

Data request: Tell me measured growth for `N#Cc1cccc(-c2nc3ccccn3c2NCCN2CCOCC2)c1` please.
Data returned: 98.3% (inactive)

Data request: Tell me measured growth for C=C(C)[C@@H]1CC[C@@]2(C(=O)O)CC[C@]3(C)C(CCC4[C@@]5(C)CCC(OS(=O)(=O)c6ccccc6)C(C)(C)C5CC[C@]43C)C12 (some centres undefined) please.
Data returned: 49.7% (inactive)

Data request: Tell me measured growth for `CCn1nc(C#Cc2c(C)ccc3c(Nc4ccc(Cl)cc4)nccc23)c2c(N)ncnc21` please.
Data returned: 8.02% (active)

Data request: Tell me measured growth for `COC(=O)/C(=C\c1ccc(OC)cc1)C(=O)N1c2ccccc2Sc2ccccc21` please.
Data returned: 58.3% (inactive)

Data request: Tell me measured growth for `CCCCCCCCCCCCCCCCCC1=NCCN1C(=O)OCCO` please.
Data returned: 38.4% (inactive)

Data request: Tell me measured growth for C=C(C)C1CCC(=C)C2CCC3(C)OC12/C=C(/COC(C)=O)CCC3O (centres undefined) please.
Data returned: 98.2% (inactive)

Data request: Tell me measured growth for CSc1nc(N)c(CNC(C)c2ccccc2)c(=O)n1C (centres undefined) please.
Data returned: 97.9% (inactive)

Data request: Tell me measured growth for `CN1CCN(C2=C(Cl)C(=O)c3ccccc3C2=O)CC1` please.
Data returned: 82.9% (inactive)

---

system: HOP-92 NSCLC; assay: NCI-60 one-dose screen, 48 h; details: 10 µM unless noted
Compounds without any hit were thinned out: in the full panel of roughly 83,000, 20% have a hit. Activity calls are given as the source filed them. Rule for the calls: active = growth percent below 10; inactive = the rest.
// classify into active, inactive

Data request: Each molecule tested received a call. Report the one for `C[C@@H]1C(=O)N(C[C@H](Cc2ccccc2)N(Cc2ccccc2)Cc2ccccc2)[C@]1(Cc1ccccc1)C(=O)OC(C)(C)C` .
Data returned: inactive

Data request: Each molecule tested received a call. Report the one for `CC(C)c1ccc(NC(=O)Cc2ccc(Nc3ncnc4cc(-c5cnn(CCN(C)C)c5)ccc34)cc2)cc1` .
Data returned: active

Data request: Each molecule tested received a call. Report the one for `CCc1cc(Cc2cc(CC)cc(C(C)(C)C)c2O)c(O)c(C(C)(C)C)c1` .
Data returned: active

Data request: Each molecule tested received a call. Report the one for `CC(C)OCCCNCC(=O)Nc1ccc(S(=O)(=O)c2ccc(NC(=O)CNCCCOC(C)C)cc2)cc1` .
Data returned: inactive

Data request: Each molecule tested received a call. Report the one for `Nc1ccc(CCCCc2ccccc2)c(Cl)c1` .
Data returned: inactive

Data request: Each molecule tested received a call. Report the one for `CCCN1CCN(c2ccc3nc(-c4ccc5nc(-c6cc(OC)c(OC)c(OC)c6)[nH]c5c4)[nH]c3c2)CC1` .
Data returned: inactive

Data request: Each molecule tested received a call. Report the one for `C[C@@H]1C(=O)N(C[C@@H](Cc2ccccc2)NC(=O)OCc2ccccc2)[C@]1(Cc1ccccc1)C(=O)OCc1ccccc1` .
Data returned: inactive

Data request: Each molecule tested received a call. Report the one for O=c1[nH]c(=O)n(C2CC(O)C(CO)O2)cc1CO (centres undefined) .
Data returned: inactive

Data request: Each molecule tested received a call. Report the one for `O=[N+]([O-])c1cccc(/C=C/c2ccccn2)c1` .
Data returned: inactive

Data request: Each molecule tested received a call. Report the one for C=C(C)[C@@H]1CC[C@]2(CNCCO)CC[C@]3(C)[C@H](CC[C@@H]4[C@@]5(C)CCC(N)[C@@](C)(CO)[C@@H]5CC[C@]43C)[C@@H]12 (some centres undefined) .
Data returned: inactive

Data request: Each molecule tested received a call. Report the one for `Cc1nc(-c2ccccc2)cc2c(O)c(C(=O)N/N=C/c3ccc(N(C)C)cc3)[nH]c(=O)c12` .
Data returned: inactive

---

Test system: LOX IMVI melanoma
Assay: NCI-60 one-dose screen, 48 h (100 = growth as untreated, 0 = no growth, -100 = all killed)
Settings: 10 µM unless noted
Experimental: Growth inhibition of the LOX IMVI human tumor cell line is measured as a screen for anti-cancer activity. Cells are grown in 96 well plates and exposed to the test compound for 48 hours. Compounds are tested at a single concentration, which is 10^-5 M for most compounds. The reported endpoint is percent growth (GI% or GIPRCNT), where numbers from 0 - 100% represent growth inhibition, and numbers from -100% - 0 represent cell death. For example, a value of 40 represents 60% growth inhibition. […]
The panel holds about 83,000 compounds, 20% with a hit somewhere; the sample as a whole holds those more often.
Label True when growth < 80%; otherwise False.

Please review the entries below; each comes with its answer.
COc1ccc(/C=C(\C#N)n2nnc3ccccc32)cc1
True
CN(C)S(=O)(=O)n1cnc([C@@H]2[C@@H]3C(=O)OC[C@@H]3C[C@]23N=CN(Cc2ccccc2)C3=O)c1
False
N=C(N)c1ccc(-c2ccc(-c3ccc(Cl)cc3Cl)o2)nc1
True

Data request: Does this compound meet the criterion growth < 80%? `CC(=O)Nc1nccs1`
Data returned: False

Data request: Does this compound meet the criterion growth < 80%? `CC(=O)Nc1ccc(-c2cc3c(NCc4ccc(F)cc4)ncnc3s2)cc1`
Data returned: False

Data request: Does this compound meet the criterion growth < 80%? CCN(CC)CCCC(C)NCc1ccccc1 (configuration not stated)
Data returned: False

Data request: Does this compound meet the criterion growth < 80%? `COC(=O)Nc1nc2ccc(C(=O)C3CC3)cc2[nH]1`
Data returned: True

Data request: Does this compound meet the criterion growth < 80%? `Cc1ccc2c(n1)C(=O)C(Oc1ccc(F)cc1)=CC2=O`
Data returned: False

Data request: Does this compound meet the criterion growth < 80%? `[2H]c1nc(Nc2ncc(F)c(-c3cc(F)c4nc(C)n(C(C)C)c4c3)n2)c([2H])c([2H])c1CN1CCN(C([2H])([2H])C([2H])([2H])[2H])CC1`
Data returned: True

Data request: Does this compound meet the criterion growth < 80%? CN1C(=O)CCC(N2C(=O)c3cccc(NCCOCCOCCNC(=O)c4cc5c(o4)C(=O)c4ccccc4C5=O)c3C2=O)C1=O (configuration not stated)
Data returned: True

Data request: Does this compound meet the criterion growth < 80%? `CC(/C=N/NC(=O)c1cc(-c2ccco2)[nH]n1)=C\c1ccccc1`
Data returned: False

Data request: Does this compound meet the criterion growth < 80%? O=C(O)CC1Sc2ccccc2NC1=O (configuration not stated)
Data returned: False
